Assignment: determine reported inhibition of growth at 5 µM for the given compounds.
- System: Toxoplasma gondii RH-2F tachyzoites
- Assay procedure: microbe, parasite or virus in culture
- Study conditions: 72 h, read-out: Parasite inhibition (%) mean, preliminary screen of compound library, mean
One number for each entry, in %.

Examples with their reported inhibition of growth at 5 µM follow.
>  <Compound>
CN1CCN(C2CCN(C(=O)Nc3cc(Oc4ccc(NC(=O)C5(C(=O)Nc6ccc(F)cc6)CC5)c(F)c4)ccn3)CC2)CC1 [Golvatinib (E7050)]

>  <inhibition of growth at 5 µM (%)>
76.8

$$$$
>  <Compound>
Cc1c(Cn2c(C)nc3c(C(=O)O)cc(N4CCOCC4)cc32)cccc1C(F)(F)F

>  <inhibition of growth at 5 µM (%)>
1.7

$$$$
>  <Compound>
CN(C)C(=O)COC(=O)Cc1ccc(OC(=O)c2ccc(NC(=N)N)cc2)cc1 [Camostat Mesilate (FOY-305)]

>  <inhibition of growth at 5 µM (%)>
2.5

$$$$

Turning now to a further record.
Summary line: COC(=O)CCSCc1ccc(-c2onc(C)c2NC(=O)OC(C)c2ccccc2Cl)cc1 (stereo not shown) , Toxoplasma gondii RH-2F tachyzoites, reported inhibition of growth at 5 µM = 1.4

meta.source: paper PMC7216583
